Test system: LLC-MK2 monkey kidney epithelial cells
experiment.notes: Cytotoxicity test, MTT/formazan assay
Assay type: cell-based
condition.details: CC50 on LLC-MK2 cells/IC50 on P. falciparum 3D7
Protocol: This was done on monkey kidney epithelial cells, LLC-MK2, (ATCC, USA) as described except for use of same culture medium and conditions for P falciparum above. […] The plates were incubated for 72 h at 37 °C in 5% CO2 and cell viability were determined using microscopy to observe dead cells which appeared dark and deformed. […] The selectivity index (SI) was calculated using the formula:3 SI=CC50onLLC‐MK2cells/IC50onP.falciparum […]
Measured SI on 3D7 values are reported for all entries that follow.
observable: SI on 3D7

compound: O=C(c1ccc(F)cc1)C1CCN(Cc2ccc(Cl)c(Cl)c2)CC1
study.system: LLC-MK2 monkey kidney epithelial cells
observable: SI on 3D7
measurement: 43.51
//
compound: OC(c1ccc(F)cc1)C1CCN(Cc2ccc(Br)cc2)CC1 (stereo not drawn)
study.system: LLC-MK2 monkey kidney epithelial cells
observable: SI on 3D7
measurement: 74.49
//
compound: Cc1ccc(CN2CCC(C(O)c3ccc(F)cc3)CC2)cc1 (stereo not drawn)
study.system: LLC-MK2 monkey kidney epithelial cells
observable: SI on 3D7
measurement: 55.52
//
compound: OC(c1ccc(F)cc1)C1CCN(Cc2ccc(Cl)c(Cl)c2)CC1 (stereo not drawn)
study.system: LLC-MK2 monkey kidney epithelial cells
observable: SI on 3D7
measurement: 21.14
//
compound: OC(c1ccc(F)cc1)C1CCN(Cc2ccc(F)cc2)CC1 (stereo not drawn)
study.system: LLC-MK2 monkey kidney epithelial cells
observable: SI on 3D7
measurement: 93.67
//
compound: O=C(c1ccc(F)cc1)C1CCN(Cc2ccc(F)cc2)CC1
study.system: LLC-MK2 monkey kidney epithelial cells
observable: SI on 3D7
measurement: 22.17

====

Tested on: P. falciparum Dd2
experiment.notes: Primary screen: in vitro parasite growth inhibition at a single concentration, fluorescence microscopy with acridine orange
Format: cell-based, Plasmodium falciparum
condition.details: Plasmodium falciparum; 40 μg/mL, 48 h, Dd2 chloroquine-resistant strain
Measured inhibition at 40 µg/mL values are reported for all entries that follow.
observable: inhibition at 40 µg/mL (%)

compound: O=C(c1ccc(F)cc1)C1CCN(Cc2ccc(F)cc2)CC1
study.system: P. falciparum Dd2
observable: inhibition at 40 µg/mL
readout.unit: %
measurement: 83.2
--
compound: OC(c1ccc(F)cc1)C1CCN(Cc2ccc(Br)cc2)CC1 (stereo not drawn)
study.system: P. falciparum Dd2
observable: inhibition at 40 µg/mL
readout.unit: %
measurement: 85.6
--
compound: Cc1ccc(CN2CCC(C(=O)c3ccc(F)cc3)CC2)cc1
study.system: P. falciparum Dd2
observable: inhibition at 40 µg/mL
readout.unit: %
measurement: 59.1

====

Test system: P. falciparum Dd2
experiment.notes: Secondary screen: parasite growth inhibition by parasite lactate dehydrogenase (pLDH) assay, Dd2
Format: cell-based, Plasmodium falciparum
condition.details: Plasmodium falciparum; Dd2 chloroquine-resistant strain, pLDH assay, mean ± S.D.; read-out: IC90
Measured IC90 values are reported for all entries that follow.
observable: IC90 (µg/mL)

compound: OC(c1ccc(F)cc1)C1CCN(Cc2ccc(Cl)c(Cl)c2)CC1 (stereo not drawn)
study.system: P. falciparum Dd2
measurement: 17.3
//
compound: Cc1ccc(CN2CCC(C(O)c3ccc(F)cc3)CC2)cc1 (stereo not drawn)
study.system: P. falciparum Dd2
measurement: 10.2
//
compound: O=C(c1ccc(F)cc1)C1CCN(Cc2ccc(Br)cc2)CC1
study.system: P. falciparum Dd2
measurement: 32.3
//
compound: OC(c1ccc(F)cc1)C1CCN(Cc2ccc(F)cc2)CC1 (stereo not drawn)
study.system: P. falciparum Dd2
measurement: 17.7
//
compound: CO[C@H]1O[C@@H]2O[C@@]3(C)CC[C@H]4[C@H](C)CC[C@@H]([C@H]1C)[C@@]24OO3 [Art, artemether, reference compound]
study.system: P. falciparum Dd2
measurement: 0.046
//
compound: O=C(c1ccc(F)cc1)C1CCN(Cc2ccc(F)cc2)CC1
study.system: P. falciparum Dd2
measurement: 27.6
//
compound: OC(c1ccc(F)cc1)C1CCN(Cc2ccc(Br)cc2)CC1 (stereo not drawn)
study.system: P. falciparum Dd2
measurement: 27.8
//
compound: O=[N+]([O-])c1ccccc1CN1CCC(C(O)c2ccc(F)cc2)CC1 (stereo not drawn)
study.system: P. falciparum Dd2
measurement: 35.3
//
compound: O=C(c1ccc(F)cc1)C1CCN(Cc2ccc(Cl)c(Cl)c2)CC1
study.system: P. falciparum Dd2
measurement: 24.9
